Assay: 1st phase clinical test: pharmacokinetics of petasin in serum after single oral administration of tablets containing butterbur extract (open crossover; enzyme immunoassay)
Type: in vivo, human (clinically healthy men)
Conditions: male, human, serum, oral, 4 tablets, after administering 4 tablets; 1.17 h p.a. (1.167 in Table 3); read-out: Petasin serum concentration Mean
READOUT_TYPE: concentration at 1.17 h (ng/mL)
The response must be a number in ng/mL with no trailing unit.

Req: Please give the measured concentration at 1.17 h for this compound: C=C(C)C1CC2(C)C(=CC1=O)CCC(OC(=O)/C(C)=C\C)C2C (stereo not shown)
Resp: 47.3

* * *

Experiment: 1st phase clinical test: pharmacokinetics of petasin in serum after single oral administration of tablets containing butterbur extract (open crossover; enzyme immunoassay)
Format: in vivo, human (clinically healthy men)
Conditions: male, human, serum, oral, 4 tablets, after administering 4 tablets; 6 h p.a.; read-out: Petasin serum concentration Mean
READOUT_TYPE: concentration at 6 h (ng/mL)
The response must be a number in ng/mL with no trailing unit.

Req: I have this compound here, C=C(C)C1CC2(C)C(=CC1=O)CCC(OC(=O)/C(C)=C\C)C2C (stereo not shown) , and I need its recorded concentration at 6 h.
Resp: 5.8

* * *

Assay: 1st phase clinical test: pharmacokinetics of petasin in serum after single oral administration of tablets containing butterbur extract (open crossover; enzyme immunoassay)
Assay type: in vivo, human (clinically healthy men)
Conditions: male, human, serum, oral, 2 tablets, after administering 2 tablets; 1 h p.a.; read-out: Petasin serum concentration Min.
READOUT_TYPE: concentration at 1 h (ng/mL)
Number only, in ng/mL; omit the unit.

Req: Could you tell me which concentration at 1 h is on file for C=C(C)C1CC2(C)C(=CC1=O)CCC(OC(=O)/C(C)=C\C)C2C (stereo not shown) ?
Resp: 4

* * *

Assay: 1st phase clinical test: pharmacokinetics of petasin in serum after single oral administration of tablets containing butterbur extract (open crossover; enzyme immunoassay)
Format: in vivo, human (clinically healthy men)
Details: male, human, serum, oral, 2 tablets, after administering 2 tablets; 1.17 h p.a.; read-out: Petasin serum concentration Mean
READOUT_TYPE: concentration at 1.17 h

Req: May I ask what concentration at 1.17 h has been recorded for C=C(C)C1CC2(C)C(=CC1=O)CCC(OC(=O)/C(C)=C\C)C2C (stereo not shown) ?
Resp: 21 ng/mL

* * *

Experiment: 1st phase clinical test: pharmacokinetics of petasin in serum after single oral administration of tablets containing butterbur extract (open crossover; enzyme immunoassay)
Type: in vivo, human (clinically healthy men)
Settings: male, human, serum, oral, 4 tablets, after administering 4 tablets; 5 h p.a.; read-out: Petasin serum concentration Median
READOUT_TYPE: concentration at 5 h (ng/mL)
Give just the numeric value; ng/mL need not be written.

Req: What measured concentration at 5 h goes with C=C(C)C1CC2(C)C(=CC1=O)CCC(OC(=O)/C(C)=C\C)C2C (stereo not shown) ?
Resp: 7.3

* * *

Assay: 1st phase clinical test: pharmacokinetics of petasin in serum after single oral administration of tablets containing butterbur extract (open crossover; enzyme immunoassay)
Assay type: in vivo, human (clinically healthy men)
Conditions: male, human, serum, oral, 4 tablets, after administering 4 tablets; 0.25 h p.a.; read-out: Petasin serum concentration Median
READOUT_TYPE: concentration at 0.25 h (ng/mL)
The response must be a number in ng/mL with no trailing unit.

Req: Using the record for C=C(C)C1CC2(C)C(=CC1=O)CCC(OC(=O)/C(C)=C\C)C2C (stereo not shown) [petasin] , report its concentration at 0.25 h.
Resp: 3.2

* * *

Assay: 1st phase clinical test: pharmacokinetics of petasin in serum after single oral administration of tablets containing butterbur extract (open crossover; enzyme immunoassay)
Format: in vivo, human (clinically healthy men)
Details: male, human, serum, oral, 4 tablets, after administering 4 tablets; 1 h p.a.; read-out: Petasin serum concentration Max.
READOUT_TYPE: concentration at 1 h (ng/mL)
Give your result in ng/mL as a bare value.

Req: Would you mind telling me what concentration at 1 h value was observed for C=C(C)C1CC2(C)C(=CC1=O)CCC(OC(=O)/C(C)=C\C)C2C (stereo not shown) [petasin] ?
Resp: 100

* * *

Assay: 1st phase clinical test: pharmacokinetics of petasin in serum after single oral administration of tablets containing butterbur extract (open crossover; enzyme immunoassay)
Format: in vivo, human (clinically healthy men)
Conditions: male, human, serum, oral, 4 tablets, after administering 4 tablets; 1.833 h p.a.; read-out: Petasin serum concentration Max.
READOUT_TYPE: concentration at 1.833 h (ng/mL)
# number only, unit ng/mL dropped from output

Req: So what does the record say about concentration at 1.833 h for C=C(C)C1CC2(C)C(=CC1=O)CCC(OC(=O)/C(C)=C\C)C2C (stereo not shown) ?
Resp: 100

* * *

Experiment: 1st phase clinical test: pharmacokinetics of petasin in serum after single oral administration of tablets containing butterbur extract (open crossover; enzyme immunoassay)
Assay type: in vivo, human (clinically healthy men)
Conditions: male, human, serum, oral, 4 tablets, after administering 4 tablets; 8 h p.a.; read-out: Petasin serum concentration Median
READOUT_TYPE: concentration at 8 h (ng/mL)
Numeric answer only, unit ng/mL assumed.

Req: Please look up its concentration at 8 h: C=C(C)C1CC2(C)C(=CC1=O)CCC(OC(=O)/C(C)=C\C)C2C (stereo not shown) [petasin]
Resp: 3.1

* * *

Experiment: 1st phase clinical test: pharmacokinetics of petasin in serum after single oral administration of tablets containing butterbur extract (open crossover; enzyme immunoassay)
Format: in vivo, human (clinically healthy men)
Conditions: male, human, serum, oral, 2 tablets, after administering 2 tablets; 24 h p.a.; read-out: Petasin serum concentration Max.
Description: Petasin ovalbumin is adsorptively bound to polystyrene microtitration plates in a concentration of […] in 0.1 M carbonate buffer, pH=9.5, (100 μl/well) for 16 hours at 4° C. and thereupon sucked off. After washing it two times with 300 μl/well washing buffer (PBS, 0.1% Tween 20) it is blocked for 2 hours at room temperature with 150 μl/well blocking solution (0.6% gelatine, 0.02% […] in PBS) and subsequently washed three times with washing buffer. […]
READOUT_TYPE: concentration at 24 h
Please answer using a numeric value trailed by its unit.

Req: Need concentration at 24 h of C=C(C)C1CC2(C)C(=CC1=O)CCC(OC(=O)/C(C)=C\C)C2C (stereo not shown) , thanks.
Resp: 2.3 ng/mL

* * *

Experiment: 1st phase clinical test: pharmacokinetics of petasin in serum after single oral administration of tablets containing butterbur extract (open crossover; enzyme immunoassay)
Format: in vivo, human (clinically healthy men)
Settings: male, human, serum, oral, 2 tablets, after administering 2 tablets; 3 h p.a.; read-out: Petasin serum concentration Min.
READOUT_TYPE: concentration at 3 h (ng/mL)
The reply should be a number in ng/mL, with the unit left off.

Req: GET /values?readout=concentration at 3 h&item= C=C(C)C1CC2(C)C(=CC1=O)CCC(OC(=O)/C(C)=C\C)C2C (stereo not shown) [petasin]
Resp: 3.1

* * *

Experiment: 1st phase clinical test: pharmacokinetics of petasin in serum after single oral administration of tablets containing butterbur extract (open crossover; enzyme immunoassay)
Type: in vivo, human (clinically healthy men)
Settings: male, human, serum, oral, 4 tablets, after administering 4 tablets; 1 h p.a.; read-out: Petasin serum concentration Mean
READOUT_TYPE: concentration at 1 h (ng/mL)
Express it in ng/mL; write the number only.

Req: Could you share which concentration at 1 h value was measured for C=C(C)C1CC2(C)C(=CC1=O)CCC(OC(=O)/C(C)=C\C)C2C (stereo not shown) ?
Resp: 36.6

* * *

Assay: 1st phase clinical test: pharmacokinetics of petasin in serum after single oral administration of tablets containing butterbur extract (open crossover; enzyme immunoassay)
Format: in vivo, human (clinically healthy men)
Settings: male, human, serum, oral, 4 tablets, after administering 4 tablets; 4 h p.a.; read-out: Petasin serum concentration Median
READOUT_TYPE: concentration at 4 h (ng/mL)
Give just the number in ng/mL; leave the unit off.

Req: Return reported concentration at 4 h; argument: C=C(C)C1CC2(C)C(=CC1=O)CCC(OC(=O)/C(C)=C\C)C2C (stereo not shown)
Resp: 8.1

* * *

Assay: 1st phase clinical test: pharmacokinetics of petasin in serum after single oral administration of tablets containing butterbur extract (open crossover; enzyme immunoassay)
Format: in vivo, human (clinically healthy men)
Settings: male, human, serum, oral, 2 tablets, after administering 2 tablets; 12 h p.a.; read-out: Petasin serum concentration Median
READOUT_TYPE: concentration at 12 h (ng/mL)
Only the number, expressed in ng/mL, is required.

Req: Bench note: what concentration at 12 h did C=C(C)C1CC2(C)C(=CC1=O)CCC(OC(=O)/C(C)=C\C)C2C (stereo not shown) show?
Resp: 1.4

* * *

Assay: 1st phase clinical test: pharmacokinetics of petasin in serum after single oral administration of tablets containing butterbur extract (open crossover; enzyme immunoassay)
Assay type: in vivo, human (clinically healthy men)
Settings: male, human, serum, oral, 4 tablets, after administering 4 tablets; 0.5 h p.a.; read-out: Petasin serum concentration Max.
READOUT_TYPE: concentration at 0.5 h (ng/mL)
API: value field is a number in ng/mL; no unit string.

Req: Given the entry C=C(C)C1CC2(C)C(=CC1=O)CCC(OC(=O)/C(C)=C\C)C2C (stereo not shown) [petasin] , report its measured concentration at 0.5 h.
Resp: 96.2
